Cited source for all entries: patent US8933113B2

target: full-length human Mineralocorticoid Receptor (MR) (Homo sapiens); construct: host or cells: PathHunter CHO-K1 cells; test: human MR NH Pro assay (PathHunter Protein:Protein interaction assay), MR antagonist activity; format: cell-based; details: PathHunter CHO-K1 cells overexpressing human MR; aldosterone about 0.3 nM; 6 hours at 37° C.; luminescence; read-out: Primary Assay IP rating (IP = inflection point for a given dose-response titration curve)
Sequence (P08235 whole entry): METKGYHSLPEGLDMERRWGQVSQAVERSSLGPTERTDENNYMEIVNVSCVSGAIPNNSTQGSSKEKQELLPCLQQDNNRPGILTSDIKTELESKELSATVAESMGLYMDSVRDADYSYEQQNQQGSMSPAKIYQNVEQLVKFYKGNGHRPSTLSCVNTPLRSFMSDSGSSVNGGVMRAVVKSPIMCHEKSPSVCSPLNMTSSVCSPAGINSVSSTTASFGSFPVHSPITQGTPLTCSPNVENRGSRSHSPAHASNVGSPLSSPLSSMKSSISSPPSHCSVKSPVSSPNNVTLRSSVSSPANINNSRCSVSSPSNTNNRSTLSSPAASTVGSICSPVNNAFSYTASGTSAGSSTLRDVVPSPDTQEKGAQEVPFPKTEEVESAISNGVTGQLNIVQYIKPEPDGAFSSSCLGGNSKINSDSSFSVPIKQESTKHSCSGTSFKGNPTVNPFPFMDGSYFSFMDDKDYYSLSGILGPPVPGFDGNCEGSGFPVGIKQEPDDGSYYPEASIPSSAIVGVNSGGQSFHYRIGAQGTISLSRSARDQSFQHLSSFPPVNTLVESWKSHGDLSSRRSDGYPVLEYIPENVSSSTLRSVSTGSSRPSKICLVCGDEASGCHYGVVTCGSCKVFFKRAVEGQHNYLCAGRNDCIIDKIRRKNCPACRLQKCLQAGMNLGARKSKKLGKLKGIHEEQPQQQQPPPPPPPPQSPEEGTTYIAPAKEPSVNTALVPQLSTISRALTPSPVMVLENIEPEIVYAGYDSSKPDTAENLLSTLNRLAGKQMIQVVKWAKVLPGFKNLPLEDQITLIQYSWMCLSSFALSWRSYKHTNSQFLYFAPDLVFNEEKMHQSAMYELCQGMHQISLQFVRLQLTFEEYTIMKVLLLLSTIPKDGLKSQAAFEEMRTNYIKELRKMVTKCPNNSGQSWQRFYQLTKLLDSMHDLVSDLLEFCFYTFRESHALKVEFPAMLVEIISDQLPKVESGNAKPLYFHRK
pIC50: −log10 of the molar value.
reported_endpoint: pIC50

Completed entries (count: 5):
| compound | pIC50 |
| --- | --- |
| CCC(CCC#N)(c1ccc(Cl)cc1)n1ncc2c(NS(C)(=O)=O)cccc21 (single isomer, unassigned) [Compound 137] | 6.30 to 7.00 |
| CCC(c1ccc(Cl)cc1)(c1nc(C)no1)n1ccc2c(NS(C)(=O)=O)cccc21 (single isomer, unassigned) [Compound 150] | > 7.00 |
| COC(=O)C(c1cccc(Br)c1)n1ccc2c([N+](=O)[O-])cccc21 (stereo not drawn) [Compound 4] | 5.30 to 6.30 |
| CCC(c1ccc(Cl)cc1)(c1nnc(-c2cc(F)cc(F)c2)o1)n1ccc2c(NS(C)(=O)=O)cccc21 (stereo not drawn) [Compound 75] | 5.30 to 6.30 |
| CCC(c1ccc(Cl)cc1)(C(C)O)n1ncc2c(NS(C)(=O)=O)cccc21 (single isomer, unassigned) [Compound 107] | > 7.00 |

Item under review: CCC(c1ccc(Cl)cc1)(C(C)O)n1ccc2c(NS(C)(=O)=O)cccc21 (single isomer, unassigned) [Compound 108] . Reported pIC50? > 7.00

Do the same for CCC(c1ccc(C(F)(F)F)cc1)(C(C)O)n1ncc2c(NS(C)(=O)=O)cccc21 (single isomer, unassigned) [Compound 115] please > 7.00

Do the same for CCC(c1ccc(Cl)cc1)(c1nc(C(N)=O)no1)n1ncc2c(NS(C)(=O)=O)cccc21 (stereo not drawn) [Compound 157] please 6.30 to 7.00
